Biological target: unrelated Fc-fused recombinant protein (negative control)
Test: ELISA, bacterial lysate on plate-bound antigen, luminescence
VALUE_TYPE: ELISA Fc Control (RLU)
Answer with a number only, understood to be in RLU.

Here is how some binders turned out for ELISA Fc Control (RLU).
ISOP120ER5P1A8 (designed binder, not shown: small tags and cut ends, FN3 domain (Centyrin); tested as E. coli lysate) LPAPKNLVVSRVTEDSARLSWTAPDAAFDSFDIYYFEHPVGGEAIVLTVPGSERSYDLTGLKPGTEYLVTIYGVKGGYLSMPLSAIFTT; 400
ISOP120AR5P1C4 (designed binder, not shown: small tags and cut ends, FN3 domain (Centyrin); tested as E. coli lysate) LPAPKNLVVSRVTEDSARLSWAFQWHIFDSFLIQYQESEKVGEAIVLTVPGSERSYDLTGLKPGTEYTVSIYGVGQPYTVYDSNPLSAIFTT; 320
ISOP120HR5P1E7 (designed binder, not shown: small tags and cut ends, FN3 domain (Centyrin); tested as E. coli lysate) LPAPKNLVVSRVTEDSARLSWTAPDAAFDSFQIYYLEQLGYGEAIVLTVPGSERSYDLTGLKPGTEYLVTIYGVKVCEQSYPLSAIFTT; 480
ISOP120BR5P1E4 (designed binder, not shown: small tags and cut ends, FN3 domain (Centyrin); tested as E. coli lysate) LPAPKNLVVSRVTEDSARLSWDDQFEDWFDSFLIQYQESEQVGEAIVLTVPGSERSYDLTGLKPGTEYTVSIYGVHTRDWTAWNASNPLSAIFTT; 320
ISOP120GR5P1H6 (designed binder, not shown: small tags and cut ends, FN3 domain (Centyrin); tested as E. coli lysate) LPAPKNLVVSRVTEDSARLSWTNEQITKYGFDSFLIQYQESEKVGEAIVLTVPGSERSYDLTGLKPGTEYTVSIYGVGRHYTVYDSNPLSAIFTT; 400
ISOP120ER5P1H6 (designed binder, not shown: small tags and cut ends, FN3 domain (Centyrin); tested as E. coli lysate) LPAPKNLVVSRVTEDSARLSWTAPDAAFDSFSIYYGEWHALGEAIVLTVPGSERSYDLTGLKPGTEYVVTIYGVKGGTYSLPLSAIFTT; 320
ISOP120GR5P1C10 (designed binder, not shown: small tags and cut ends, FN3 domain (Centyrin); tested as E. coli lysate) LPAPKNLVVSRVTEDSARLSWTAPDGAFDSFEIPYIEVETIGEAIWLHVPGSERSYDLTGLKPGTEYSVGINGVKGGHTSNPLSARFTT; 240
ISOP120AR5P1B5 (designed binder, not shown: small tags and cut ends, FN3 domain (Centyrin); tested as E. coli lysate) LPAPKNLVVSRVTEDYARLSWKYGEHIIWFDSFLIQYQESEKVGEAIVLTVPGSERSYDLTGLKPGTEYTVSIYGVKGQHDHDSNPLSAIFTT; 400

// moving on: another record for ELISA Fc Control (RLU)
Quick one: ELISA Fc Control (RLU) of ISOP120AR5P1C3 (designed binder, not shown: small tags and cut ends, FN3 domain (Centyrin); tested as E. coli lysate) LPAPKNLVVSRVTEDSARLSWSPVDADFTFDSFLIQYQESEKVGEAIVLTVPGSERSYDLTGLKPGTEYTVSIYGVGRHYTVYDSNPLSAIFTT ?
320
